Biological target: human GPR119 (Homo sapiens, UniProt Q8TDV5)
Experiment: Functional cellular assay measuring GPR119-mediated cAMP release (HTRF), HEK-293 cells stably expressing recombinant GPR119
Details: cell line expressing human GPR119; cAMP response, 30 minutes at room temperature
QUANTITY MEASURED: EC50 (µM)
Respond with the bare value in µM.

O=C1CCc2c(F)cc(N3CC[C@@H](Oc4ccc(OC5CCOCC5)nc4)C3=O)cc21
0.045
CSc1ccc(O[C@@H]2CCN(c3cc(F)c4c(c3)C(=O)CC4)C2=O)cn1
0.368

Exam item: I would be grateful if you could share the reported EC50 for `O=C1CCc2c(F)cc(N3CC[C@@H](Oc4ccc(OCCn5ccnc5)nc4)C3=O)cc21` .
Marked response: 44.2

Exam item: I would be grateful if you could share the reported EC50 for `O=C1CCc2c(F)cc(N3CC[C@@H](Oc4ccc(OCC5CC5)nc4)C3=O)cc21` .
Marked response: 0.008

----------
Target: human GPR119 (Homo sapiens, UniProt Q8TDV5)
Experiment: Functional cellular assay measuring GPR119-mediated cAMP release (HTRF), HEK-293 cells stably expressing recombinant GPR119
Details: cell line expressing human GPR119; cAMP response, 30 minutes at room temperature
In plain terms, low EC50, meaning strictly below 90 nM, gives Condition met, and everything else gives Condition not met.

// known answers, use as guide
CCCCCOc1cc(O[C@@H]2CCN(c3cc(F)c4c(c3)C(=O)CC4)C2=O)ccn1 [Example 5-06]
Condition met
O=C1CCc2c(F)cc(N3CC[C@@H](Oc4ccc(OCC5COCO5)nc4)C3=O)cc21 (some centres unmarked) [Example 2-32]
Condition not met
O=C1CCc2c(F)cc(N3CC[C@@H](Oc4ccnc(OCC5CC5)c4)C3=O)cc21 [Example 5-03]
Condition met
CCOC(=O)COc1ccc(O[C@@H]2CCN(c3cc(F)c4c(c3)C(=O)CC4)C2=O)cn1 [Example 2-43]
Condition met
N#Cc1cc(N2CC[C@@H](Oc3ccc(OCC4CC4)nc3)C2=O)cc2c1CCC2=O [Example 4-03]
Condition not met
O=C1CCc2c(F)cc(N3CC[C@@H](Oc4ccc(OC5CCCOC5)nc4)C3=O)cc21 (some centres unmarked) [Example 2-79]
Condition met

Exam item: Identify whether the molecule CN(C)C(=O)c1cc(O[C@@H]2CCN(c3cc(F)c4c(c3)C(=O)CC4)C2=O)cnc1OCC1CC1 [Example 8-03] records EC50 below 90 nM.
Marked response: Condition not met

Exam item: Identify whether the molecule O=C1CCc2c(F)cc(N3CC[C@@H](Oc4ccc(OCCCCO)nc4)C3=O)cc21 [Example 2-16] records EC50 below 90 nM.
Marked response: Condition not met

Exam item: Identify whether the molecule CCC(C)COc1ccc(O[C@@H]2CCN(c3cc(F)c4c(c3)C(=O)CC4)C2=O)cn1 (some centres unmarked) [Example 2-10] records EC50 below 90 nM.
Marked response: Condition met

----------
Target: human GPR119 (Homo sapiens)
Sequence (Q8TDV5 1-335): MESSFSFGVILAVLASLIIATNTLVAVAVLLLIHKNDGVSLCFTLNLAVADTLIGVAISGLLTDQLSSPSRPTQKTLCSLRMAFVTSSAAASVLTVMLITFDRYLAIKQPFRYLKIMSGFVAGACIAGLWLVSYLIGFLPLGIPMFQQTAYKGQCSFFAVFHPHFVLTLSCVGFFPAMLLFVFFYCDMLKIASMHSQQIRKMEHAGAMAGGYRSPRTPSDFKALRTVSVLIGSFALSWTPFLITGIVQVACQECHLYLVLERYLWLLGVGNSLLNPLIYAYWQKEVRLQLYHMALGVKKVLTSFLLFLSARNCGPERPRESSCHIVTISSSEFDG
Assay: Functional cellular assay measuring GPR119-mediated cAMP release (HTRF), HEK-293 cells stably expressing recombinant GPR119
Details: cell line expressing human GPR119; cAMP response, 30 minutes at room temperature
QUANTITY MEASURED: EC50
Dear colleague, please send the value followed by its unit.

CC(=O)c1ccc(O[C@@H]2CCN(c3cc(F)c4c(c3)C(=O)CC4)C2=O)cn1 [Example 3-15]
29000 nM

Exam item: I would be grateful if you could share the reported EC50 for O=C1CCc2c(F)cc(N3CC[C@@H](Oc4ccc(OCCn5cccn5)nc4)C3=O)cc21 [Example 2-21] .
Marked response: 456 nM

Exam item: I would be grateful if you could share the reported EC50 for O=C1CCc2c(F)cc(N3CC[C@@H](Oc4ccc(Oc5ccc(F)cn5)nc4)C3=O)cc21 [Example 6-01] .
Marked response: 216 nM

Exam item: I would be grateful if you could share the reported EC50 for COCCCOc1cc(O[C@@H]2CCN(c3cc(F)c4c(c3)C(=O)CC4)C2=O)ccn1 [Example 5-09] .
Marked response: 126 nM

Exam item: I would be grateful if you could share the reported EC50 for CCOCC(C)Oc1ccc(O[C@@H]2CCN(c3cc(F)c4c(c3)C(=O)CC4)C2=O)cn1 (stereo partly shown) [Example 2-51] .
Marked response: 77 nM

Exam item: I would be grateful if you could share the reported EC50 for O=C1CCc2c(F)cc(N3CC[C@@H](Oc4ccc(OCC5CCCC5)nc4)C3=O)cc21 [Example 2-57] .
Marked response: 9 nM

Exam item: I would be grateful if you could share the reported EC50 for O=C1CCc2c(F)cc(N3CC[C@@H](Oc4ccc(OC5CCCCC5)nc4)C3=O)cc21 [Example 2-66] .
Marked response: 16 nM

Exam item: I would be grateful if you could share the reported EC50 for O=C1CCc2c(F)cc(N3CC[C@@H](Oc4ccc(OC(CF)CF)nc4)C3=O)cc21 [Example 2-44] .
Marked response: 46 nM

Exam item: I would be grateful if you could share the reported EC50 for O=C1CCc2ccc(N3CC[C@@H](Oc4ccc(OC5CC5)nc4)C3=O)cc21 [Example 1-20] .
Marked response: 87 nM

----------
Biological target: human GPR119 (Homo sapiens, UniProt Q8TDV5)
Assay: Functional cellular assay measuring GPR119-mediated cAMP release (HTRF), HEK-293 cells stably expressing recombinant GPR119
Settings: cell line expressing human GPR119; cAMP response, 30 minutes at room temperature
QUANTITY MEASURED: EC50 (µM)
Respond with the bare value in µM.

# count of solved cases: 6
O=C1CC[C@H](COc2ccc(O[C@@H]3CCN(c4cc(F)c5c(c4)C(=O)CC5)C3=O)cn2)O1
0.947
O=C1CCc2c(F)cc(N3CC[C@@H](Oc4ccc(O[C@@H]5CCOC5)nc4)C3=O)cc21
0.094
CCCCOc1ccc(O[C@@H]2CCN(c3cc(F)c4c(c3)C(=O)CC4)C2=O)cn1
0.027
CC(Oc1ccc(O[C@@H]2CCN(c3cc(F)c4c(c3)C(=O)CC4)C2=O)cn1)C1CC1 (some centres unmarked)
0.016
O=C1CCc2c(F)cc(N3CC[C@@H](Oc4ccc(OC5CCC(O)C5)nc4)C3=O)cc21 (some centres unmarked)
0.858
O=C1CCc2c(F)cc(N3CC[C@@H](Oc4ccc(OCC5CC5)nc4)C3=O)c(F)c21
0.019

Exam item: I would be grateful if you could share the reported EC50 for `CCC(CC)Oc1ccc(O[C@@H]2CCN(c3cc(F)c4c(c3)C(=O)CC4)C2=O)cn1` .
Marked response: 0.054

Exam item: I would be grateful if you could share the reported EC50 for `O=C1CCc2ccc(N3CC[C@@H](Oc4ccc(OCC5CC5)nc4)C3=O)c(F)c21` .
Marked response: 0.046

----------
Measured pEC50 values are reported for all entries that follow.
Biological target: human GPR119 (Homo sapiens, UniProt Q8TDV5)
Experiment: Functional cellular assay measuring GPR119-mediated cAMP release (HTRF), HEK-293 cells stably expressing recombinant GPR119
Settings: cell line expressing human GPR119; cAMP response, 30 minutes at room temperature
Notebook: values listed as pEC50 are -log10 of the concentration (mol/L).

O=C1CCc2c(F)cc(N3CC[C@@H](Oc4ccc(OCc5cccnc5)nc4)C3=O)cc21 [Example 2-31]
5.83
CCCCN(C)C(=O)c1ccc(O[C@@H]2CCN(c3cc(F)c4c(c3)C(=O)CC4)C2=O)cn1 [Example 3-06]
6.01
O=C1CCc2c(F)cc(N3CC[C@@H](Oc4ccc(OCC5CCC5)nc4)C3=O)cc21 [Example 2-55]
8.15
O=C1CCc2c(F)cc(N3CC[C@@H](Oc4ccc(OC5CCCOC5)nc4)C3=O)cc21 (some centres unmarked) [Example 2-78]
7.48
O=C1CCc2c(F)cc(N3CC[C@@H](Oc4cnc(OCC5CC5)c(F)c4)C3=O)cc21 [Example 3-09]
7.92
O=C1CCc2c(F)cc(N3CC[C@@H](Oc4ccc(OCCC5CC5)cc4)C3=O)cc21 [Example 1-05]
7.35

Exam item: I would be grateful if you could share the reported pEC50 for CC(C)Oc1ccc(O[C@@H]2CCN(c3cc(F)c4c(c3)C(=O)CC4)C2=O)cn1 [Example 2-24] .
Marked response: 7.89

Exam item: I would be grateful if you could share the reported pEC50 for O=C1CCc2c(F)cc(N3CC[C@H](Oc4ccc(OCC5CC5)nc4)C3=O)cc21 [Example 3-12] .
Marked response: 6.55
